Entry source: patent US20080269163A1

tested on: HL-60 cells; assay: Exposure of HL-60 cells to glucopyranosides alone (no ultrasound); settings: 15 minute exposure at highest concentrations used
MEASURED_QUANTITY: effect on reproduction rate of the cells over 120 hours

{"MOLECULE": "CCCCCCO[C@@H]1O[C@H](CO)[C@@H](O)[C@H](O)[C@H]1O [HGP, hexyl-β-D-Glucopyranoside]", "ENDPOINT_VALUE": "no detrimental effect"}
{"MOLECULE": "CCCCCCCO[C@@H]1O[C@H](CO)[C@@H](O)[C@H](O)[C@H]1O [HepGP, heptyl-β-D-Glucopyranoside]", "ENDPOINT_VALUE": "no detrimental effect"}
{"MOLECULE": "CO[C@@H]1O[C@H](CO)[C@@H](O)[C@H](O)[C@H]1O [MGP, Methyl-β-D-Glucopyranoside, reference compound]", "ENDPOINT_VALUE": "no detrimental effect"}
{"MOLECULE": "CCCCCCCCO[C@@H]1O[C@H](CO)[C@@H](O)[C@H](O)[C@H]1O [OGP, octyl-β-D-Glucopyranoside]", "ENDPOINT_VALUE": "no detrimental effect"}
